# Target Or System: T1, membrane LIGHT W198A (human, UniProt O43557 1-240)
# T1 chain: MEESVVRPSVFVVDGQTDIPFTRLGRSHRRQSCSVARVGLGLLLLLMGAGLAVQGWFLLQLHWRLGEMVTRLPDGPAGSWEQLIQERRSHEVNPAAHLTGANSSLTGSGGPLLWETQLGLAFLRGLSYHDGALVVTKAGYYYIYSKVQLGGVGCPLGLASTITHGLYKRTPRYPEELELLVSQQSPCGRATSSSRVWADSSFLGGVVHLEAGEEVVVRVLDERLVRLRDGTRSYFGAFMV
# Test Name: flow cytometry, transfected HEK293FF, mAb at EC50
Property Name: binding, % of WT (%)

INSERT INTO results (binder, recorded_value) VALUES
  ('2E08 (antibody, human IgG4, V domains shown, chimeric human IgG4 (S-to-P, L-to-E at 248), human CL; also called Parental 2E08) VH: QVQMKESGAELVRPGVSVKISCKGSGYTFTDYAIHWVKQSHAKTLEWIGVISTYYGDASYNQKFKGKATMTVDKSSSTAYMELARLTSDDSAIYYCARSRGEYGNYDAMDYWGQGTSVTVSS VL: DIVLTQSPASLAVSLGQRATISCKASQSVDYDGDSYMNWYQQKPGQPPKLLIYAASNLESGIPARFSGSGSGTDFTLNIHPVEEEDAATYYCQQSNEDPLTFGAGTKLELK', 83);
